# abundance fitness listing for each entry below
B1: Intersectin-1, residues 909 to 971; numbered along this chain, Q15811 (parent)
chain: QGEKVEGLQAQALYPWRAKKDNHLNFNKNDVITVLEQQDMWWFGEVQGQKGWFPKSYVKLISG

# Variants of: B1
# assay.remarks: abundance fitness (aPCA) (normalised: wild type 0, dead -1); higher = more abundant; growth selection in yeast, the domain comes from the species named
# condition.label: Homo sapiens
No unit in the answer, only the number.

[ask] Bench note: what abundance fitness did `I61S` show?
[reply] -0.301

[ask] Fill in: abundance fitness of `K28P` is ___
[reply] -0.584

[ask] abundance fitness for `L24D` ?
[reply] -1.26

[ask] // query abundance fitness value for entry `Q47T`
[reply] -0.014

[ask] Requested field: abundance fitness. Item: `S62P`
[reply] -0.21

[ask] What measured abundance fitness goes with `G48W` ?
[reply] -0.939

[ask] Give the measured abundance fitness of `K28Y` .
[reply] -0.254

[ask] What abundance fitness value was documented for this variant, `Q1L` ?
[reply] -0.164

Reference source for all entries: the Human Domainome abundance scans (Beltran et al. 2025)
